- experimentalTarget: T1, human LAG3 (form used in Octet, Biacore and HDX-MS not given) (human, UniProt P18627 23-450, limits assumed)
- T1 sequence (looked up): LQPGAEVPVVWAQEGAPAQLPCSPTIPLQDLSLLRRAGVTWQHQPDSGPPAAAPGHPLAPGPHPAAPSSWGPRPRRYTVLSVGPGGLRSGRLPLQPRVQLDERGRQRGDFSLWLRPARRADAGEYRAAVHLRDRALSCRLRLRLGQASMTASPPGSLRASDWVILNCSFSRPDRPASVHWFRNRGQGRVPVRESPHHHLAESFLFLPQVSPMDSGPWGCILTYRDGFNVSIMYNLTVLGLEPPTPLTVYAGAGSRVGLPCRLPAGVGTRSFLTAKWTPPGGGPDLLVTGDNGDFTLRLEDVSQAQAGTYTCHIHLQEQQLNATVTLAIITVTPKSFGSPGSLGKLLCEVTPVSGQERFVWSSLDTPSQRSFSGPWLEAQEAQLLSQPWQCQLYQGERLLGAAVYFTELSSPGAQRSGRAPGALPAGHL
- assay: BLI (Octet), 1:1 fit
reportedEndpoint: kon (M⁻¹ s⁻¹)
Numbers only, in M⁻¹ s⁻¹.

Query: Quick one: kon for 029c (antibody, human IgG4, V domains shown, human IgG4 S228P / kappa chimeric antibody; also called chimeric antibody 029; not shown: human kappa light chain constant region (pcDNA3.4-hIgGk vector)) VH: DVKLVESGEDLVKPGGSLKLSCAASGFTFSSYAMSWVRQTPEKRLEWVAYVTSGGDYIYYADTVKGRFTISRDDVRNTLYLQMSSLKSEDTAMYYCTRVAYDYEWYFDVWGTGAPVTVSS VL: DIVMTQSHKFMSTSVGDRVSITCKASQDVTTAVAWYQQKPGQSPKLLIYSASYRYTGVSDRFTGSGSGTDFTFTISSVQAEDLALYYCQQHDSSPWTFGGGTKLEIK ?
Result: 3.48e+06

Now examine the next entry.
Query: State the recorded kon for this entry: hu021.269 (antibody, V domains shown, humanized from 021c) VH: QVQLQESGPGLVKPSQTLSLTCTVSGYSITSGYYWNWIRQHPGNKLEWIGDISYDGGNNYNPSLKNRVTISRDTSKNQFSLKLSSVTAADTAVYYCARDITLTGAMDYWGQGTTVTVSS VL: EIVLTQSPATLSLSPGERATLSCRASESVDNYGISFMHWYQQKPGQAPRLLIYRASNRESGIPARFSGSGSRTDFTLTISSLEPEDFAVYYCQQSNKDPYTFGQGTKLEIK
Result: 451000
